# MEASURED_ON: CD80-CD28 interaction (Homo sapiens, UniProt P33681)
# Construct: mouse Fab fragment (fusion partner)
# Sequence (P33681 35-242 limits assumed): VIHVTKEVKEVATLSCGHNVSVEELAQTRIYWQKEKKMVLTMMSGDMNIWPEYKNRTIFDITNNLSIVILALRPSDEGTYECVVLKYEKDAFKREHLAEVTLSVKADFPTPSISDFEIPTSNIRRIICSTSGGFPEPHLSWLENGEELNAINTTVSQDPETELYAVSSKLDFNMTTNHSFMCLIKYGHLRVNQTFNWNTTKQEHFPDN
# MEASUREMENT_NOTES: cell free Homogenous Time Resolved Fluorescence (HTRF) assay, inhibition of the CD80-CD28 interaction
# Assay type: binding
# PARTICULARS: 4 hours at room temperature, read-out: Activity (EC50 in summary form)

{"SMILES": "O=C(Nc1ccc(-n2nc3c4cccc(F)c4[nH]cc-3c2=O)cc1)OC1CCN(Cc2ccccc2)CC1", "EC50": "1 to 10 µM"}
{"SMILES": "CN(CCCNCC(=O)Nc1ccc(-n2nc3c4cccc(F)c4[nH]cc-3c2=O)cc1)c1ccccc1", "EC50": "> 10 µM"}
{"SMILES": "O=C(NCCCCN1CCCC1)c1ccc(-n2nc3c4cccc(F)c4[nH]cc-3c2=O)cc1", "EC50": "< 1 µM"}

###

# reported pEC50; entries follow
# MEASURED_ON: CD80-CD28 interaction (Homo sapiens)
# Construct: mouse Fab fragment (fusion partner)
# MEASUREMENT_NOTES: cell free Homogenous Time Resolved Fluorescence (HTRF) assay, inhibition of the CD80-CD28 interaction
# Format: binding
# PARTICULARS: 4 hours at room temperature, read-out: Activity (EC50 in summary form)
pEC50: −log10 of the molar value. Structures can show the parent of a compound that is named as a salt.
RESULT_TYPE: pEC50

{"MOLECULE": "CN1C(C)(C)CC(NC(=O)c2ccc(-n3nc4c5ccccc5[nH]c(C5CC5)c-4c3=O)cc2)CC1(C)C", "RECORDED_VALUE": "> 6.00"}
{"MOLECULE": "O=C(NCCCN1CCCC1)c1cccc(-n2nc3c4cccc(F)c4[nH]cc-3c2=O)c1", "RECORDED_VALUE": "< 5.00"}
{"MOLECULE": "O=C(NCCc1ccccn1)c1ccc(-n2nc3c4cccc(F)c4[nH]c(C4CC4)c-3c2=O)cc1", "RECORDED_VALUE": "5.00 to 6.00"}
{"MOLECULE": "CN(CCCNC(=O)c1ccc(-n2nc3c4cccc(F)c4[nH]cc-3c2=O)cc1)c1ccccc1", "RECORDED_VALUE": "> 6.00"}
{"MOLECULE": "CN1CCCC1CCNCC(=O)Nc1ccc(-n2nc3c4cccc(F)c4[nH]cc-3c2=O)cc1 (centres unmarked)", "RECORDED_VALUE": "> 6.00"}
{"MOLECULE": "CN1CCN(C(=O)c2ccc(-n3nc4c5cccc(F)c5[nH]cc-4c3=O)cc2)CC1", "RECORDED_VALUE": "5.00 to 6.00"}
{"MOLECULE": "O=C(NCCN1CCN(Cc2ccccc2)CC1)c1ccc(-n2nc3c4ccccc4[nH]cc-3c2=O)cc1", "RECORDED_VALUE": "5.00 to 6.00"}
{"MOLECULE": "CN1C(C)(C)CC(NC(=O)c2ccc(-n3nc4c5ccccc5scc-4c3=O)cc2)CC1(C)C", "RECORDED_VALUE": "5.00 to 6.00"}
{"MOLECULE": "CCN(CC)CCCCNC(=O)Nc1ccc(-n2nc3c4cccc(F)c4[nH]cc-3c2=O)cc1", "RECORDED_VALUE": "> 6.00"}
{"MOLECULE": "CN(C)CCCNC(=O)Nc1ccc(-n2nc3c4cccc(F)c4[nH]cc-3c2=O)cc1", "RECORDED_VALUE": "> 6.00"}
{"MOLECULE": "O=c1c2c[nH]c3ccccc3c-2nn1-c1ccc(NC(=S)NC2CC2)cc1", "RECORDED_VALUE": "5.00 to 6.00"}
{"MOLECULE": "CN(C)CCCNC(=O)c1ccc(-n2nc3c4cccc(F)c4[nH]cc-3c2=O)cc1 [Example 66, hydrochloride]", "RECORDED_VALUE": "> 6.00"}
{"MOLECULE": "CN1C2CCC1CC(NC(=O)c1ccc(-n3nc4c5cccc(F)c5[nH]c(C5CC5)c-4c3=O)cc1)C2 (centres unmarked)", "RECORDED_VALUE": "> 6.00"}
{"MOLECULE": "C[N+](C)(C)CCCC(=O)Nc1ccc(-n2nc3c4cccc(F)c4[nH]cc-3c2=O)cc1", "RECORDED_VALUE": "> 6.00"}
{"MOLECULE": "O=C(CNCCCN1CCCC1=O)Nc1ccc(-n2nc3c4cccc(F)c4[nH]cc-3c2=O)cc1", "RECORDED_VALUE": "> 6.00"}
{"MOLECULE": "CC(=O)OC(C)(C)C(=O)Nc1ccc(-n2nc3c4cccc(F)c4[nH]cc-3c2=O)cc1", "RECORDED_VALUE": "> 6.00"}
{"MOLECULE": "CN(C)CC(C)(C)CNC(=O)c1ccc(-n2nc3c4cccc(F)c4[nH]cc-3c2=O)cc1", "RECORDED_VALUE": "> 6.00"}
{"MOLECULE": "CC(C)C(=O)Nc1ccc(-n2nc3c4cccc(F)c4[nH]cc-3c2=O)cc1", "RECORDED_VALUE": "> 6.00"}
{"MOLECULE": "CCCC(C)C(=O)Nc1ccc(-n2nc3c4ccccc4[nH]cc-3c2=O)cc1 (centres unmarked)", "RECORDED_VALUE": "< 5.00"}
{"MOLECULE": "CC(C)(C)NC(=O)Nc1ccc(-n2nc3c4cccc(F)c4[nH]cc-3c2=O)cc1", "RECORDED_VALUE": "> 6.00"}
{"MOLECULE": "CCC(CC)C(=O)Nc1ccc(-n2nc3c4cccc(F)c4[nH]cc-3c2=O)cc1", "RECORDED_VALUE": "> 6.00"}
{"MOLECULE": "CC(C)N(CCNCC(=O)Nc1ccc(-n2nc3c4cccc(F)c4[nH]cc-3c2=O)cc1)C(C)C", "RECORDED_VALUE": "5.00 to 6.00"}
{"MOLECULE": "COC(=O)CCCCCCCCC(=O)Nc1ccc(-n2nc3c4cccc(F)c4[nH]cc-3c2=O)cc1", "RECORDED_VALUE": "5.00 to 6.00"}
{"MOLECULE": "COC(=O)CCCCC(=O)Nc1ccc(-n2nc3c4cccc(F)c4[nH]cc-3c2=O)cc1", "RECORDED_VALUE": "> 6.00"}
{"MOLECULE": "CC(N)C(=O)Nc1ccc(-n2nc3c4ccccc4[nH]cc-3c2=O)cc1 (centres unmarked)", "RECORDED_VALUE": "5.00 to 6.00"}
{"MOLECULE": "O=C(CN1CCN(Cc2ccc(F)cc2)CC1)Nc1ccc(-n2nc3c4cccc(F)c4[nH]cc-3c2=O)cc1", "RECORDED_VALUE": "5.00 to 6.00"}
{"MOLECULE": "O=C(NCCC1=CCCCC1)c1ccc(-n2nc3c4cccc(F)c4[nH]cc-3c2=O)cc1", "RECORDED_VALUE": "5.00 to 6.00"}
{"MOLECULE": "C#CCNC(=O)c1cccc(-n2nc3c4cccc(F)c4[nH]cc-3c2=O)c1", "RECORDED_VALUE": "5.00 to 6.00"}
{"MOLECULE": "O=C(Nc1ccc(-n2nc3c4cccc(F)c4[nH]cc-3c2=O)cc1)c1ccc(N2CCOCC2)nc1", "RECORDED_VALUE": "< 5.00"}
{"MOLECULE": "O=C(NCCCCN1CCCC1)c1ccc(-n2nc3c4ccccc4[nH]c(C4CC4)c-3c2=O)cc1", "RECORDED_VALUE": "> 6.00"}
{"MOLECULE": "O=C(CNCCCn1ccnc1)Nc1ccc(-n2nc3c4cccc(F)c4[nH]cc-3c2=O)cc1", "RECORDED_VALUE": "5.00 to 6.00"}
{"MOLECULE": "O=C(Cc1c(Cl)cccc1Cl)Nc1ccc(-n2nc3c4cccc(F)c4[nH]cc-3c2=O)cc1", "RECORDED_VALUE": "5.00 to 6.00"}
